UniProt:Q9Y2D0 measurements of Ki, listed per entry.
Sequence (Q9Y2D0 whole entry): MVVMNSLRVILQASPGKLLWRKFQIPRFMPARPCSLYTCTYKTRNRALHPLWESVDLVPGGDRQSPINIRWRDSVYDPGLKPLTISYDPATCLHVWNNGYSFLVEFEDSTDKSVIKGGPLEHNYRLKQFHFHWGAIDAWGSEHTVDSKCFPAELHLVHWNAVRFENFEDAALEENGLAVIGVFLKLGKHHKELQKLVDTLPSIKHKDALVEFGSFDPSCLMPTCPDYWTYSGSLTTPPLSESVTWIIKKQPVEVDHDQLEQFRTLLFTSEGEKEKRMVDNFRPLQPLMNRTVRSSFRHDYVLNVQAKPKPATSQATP

[
  {
    "entry_smiles": "NS(=O)(=O)c1ccc(N2CCCCS2(=O)=O)cc1",
    "Ki [nM]": 91
  },
  {
    "entry_smiles": "NS(=O)(=O)c1nnc(NC(=O)N[C@]23C[C@H]4C[C@H](C[C@H](C4)C2)C3)s1",
    "Ki [nM]": 45
  }
]

---

Carbonic anhydrase 14 (Homo sapiens) measurements of Ki, listed per entry.
Sequence (Q9ULX7 whole entry): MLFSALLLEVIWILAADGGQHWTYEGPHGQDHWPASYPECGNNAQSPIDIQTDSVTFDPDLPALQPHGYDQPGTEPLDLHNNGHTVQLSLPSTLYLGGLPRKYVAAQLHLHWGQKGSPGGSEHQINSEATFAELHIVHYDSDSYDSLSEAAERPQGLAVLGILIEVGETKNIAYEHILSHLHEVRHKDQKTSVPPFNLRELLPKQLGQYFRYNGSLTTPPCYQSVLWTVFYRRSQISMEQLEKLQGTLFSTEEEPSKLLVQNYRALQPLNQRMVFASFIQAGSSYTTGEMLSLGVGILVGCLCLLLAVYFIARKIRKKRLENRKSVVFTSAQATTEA

[
  {
    "molecule": "CC1(C)O[C@@H]2[C@@H](CC[C@@]3(COS(N)(=O)=O)OC(C)(C)O[C@@H]23)O1",
    "target_of_assay": "Carbonic anhydrase 14 (Homo sapiens)",
    "unit": "µM",
    "Ki": 1.46
  },
  {
    "molecule": "NS(=O)(=O)c1nnc(NC(=O)N[C@]23C[C@H]4C[C@H](C[C@H](C4)C2)C3)s1 [Investigational agent, 5]",
    "target_of_assay": "Carbonic anhydrase 14 (Homo sapiens)",
    "unit": "µM",
    "Ki": 0.015
  },
  {
    "molecule": "NS(=O)(=O)c1ccc(N2CCCCS2(=O)=O)cc1 [Ospolot]",
    "target_of_assay": "Carbonic anhydrase 14 (Homo sapiens)",
    "unit": "µM",
    "Ki": 1.54
  }
]

These data points were gathered from BindingDB's records for doi:10.1111/j.1747-0285.2009.00857.x.
